TERMINAL_BW: recorded values
Species on record: Rattus norvegicus
Assay: Open TG-GATES - Regimen: Single
Format: toxicity, organism-based, Sprague-Dawley
Design: regimen Single, gender Male, age 6 weeks
Conditions: in vivo, po, 0 mg/kg, 9 h, route gavage, dose level Control
Note: unit g is implicit; provide only the numeric part.

Known results for molecules:
# molecule, result-unit, TERMINAL_BW
data = [
    ("C#C[C@]1(O)CC[C@H]2[C@@H]3CCC4=Cc5oncc5C[C@]4(C)[C@H]3CC[C@@]21C", "g", 209.9),
    ("CC(=O)Nc1nnc(S(N)(=O)=O)s1 [ACETAZOLAMIDE]", "g", 212.2),
]

Value of measured TERMINAL_BW for the entry COc1cc([C@@H]2c3cc4c(cc3[C@@H](O[C@@H]3O[C@@H]5CO[C@@H](C)O[C@H]5[C@H](O)[C@H]3O)[C@H]3COC(=O)[C@H]23)OCO4)cc(OC)c1O [ETOPOSIDE] : 194.1

Recorded result, `Cc1cccc(Nc2ccccc2C(=O)O)c1C` , TERMINAL_BW: 214.7

----------
Examples of compounds with documented RBC follow.
Species on record: Rattus norvegicus
Assay: Open TG-GATES - Regimen: Single
Format: toxicity, organism-based, Sprague-Dawley
Set-up: regimen Single, gender Male, age 6 weeks
Details: in vivo, po, 0 mg/kg, 3 h, tissue Blood, route gavage, dose level Control
Quick note: give the figure in x10_4/ul, leave out the unit.

Examples with answers:
# compound, parameter-measured, result-unit, reported
records = [
    ("COc1cc([C@@H]2c3cc4c(cc3[C@@H](O[C@@H]3O[C@@H]5CO[C@@H](C)O[C@H]5[C@H](O)[C@H]3O)[C@H]3COC(=O)[C@H]23)OCO4)cc(OC)c1O [ETOPOSIDE]", "RBC", "x10_4/ul", 594.2),
    ("CN1C(C(=O)Nc2ccccn2)=C(O)c2sc(Cl)cc2S1(=O)=O", "RBC", "x10_4/ul", 638),
    ("CCOC(=O)[C@H](CCc1ccccc1)N[C@@H](C)C(=O)N1CCC[C@H]1C(=O)O", "RBC", "x10_4/ul", 596.8),
]

Reported RBC for C1CCC(C(CC2CCCCN2)C2CCCCC2)CC1 (stereo not given) was 634.6

Recorded RBC (compound `CN(C)[C@@H]1C(O)=C(C(N)=O)C(=O)[C@@]2(O)C(O)=C3C(=O)c4c(O)cccc4[C@@](C)(O)[C@H]3C[C@@H]12` ): 595.2

For this compound ( CC(CN1c2ccccc2Sc2ccccc21)N(C)C (stereo not given) ), measured RBC is 629.4

Briefly, RBC measured for `Cc1cccc(Nc2ccccc2C(=O)O)c1C` : 600.2

So for `C#C[C@]1(O)CC[C@H]2[C@@H]3CCC4=Cc5oncc5C[C@]4(C)[C@H]3CC[C@@]21C` , the logged RBC turned out to be 641.4

Lookup result for CC(=O)Nc1nnc(S(N)(=O)=O)s1 [ACETAZOLAMIDE] ; measured RBC: 608.6

For reference, reported RBC for `Clc1c(Cl)c(Cl)c(Cl)c(Cl)c1Cl` stands at 639.6

----------
Species: Rattus norvegicus
Assay: Open TG-GATES - Regimen: Daily Repeat
Type: toxicity, organism-based, Sprague-Dawley
Parameters: regimen Daily Repeat, gender Male, age 6 weeks
Conditions: in vivo, po, 0 mg/kg, 72 h, route gavage, dose level Control, time 3 day
parameter-measured: TERMINAL_BW (g)
Supply the numeric figure in g, leaving out any unit text.

# compound, TERMINAL_BW, g
data = [
    ("CN1C(C(=O)Nc2ccccn2)=C(O)c2sc(Cl)cc2S1(=O)=O [LORNOXICAM]", 242.5),
    ("C1CCC(C(CC2CCCCN2)C2CCCCC2)CC1 (stereo not given) [PERHEXILINE]", 228.9),
    ("CCOC(=O)[C@H](CCc1ccccc1)N[C@@H](C)C(=O)N1CCC[C@H]1C(=O)O", 253.2),
    ("Clc1c(Cl)c(Cl)c(Cl)c(Cl)c1Cl [PERCHLOROBENZENE]", 224.3),
    ("CC(CN1c2ccccc2Sc2ccccc21)N(C)C (stereo not given) [PROMETHAZINE]", 230.6),
    ("C#C[C@]1(O)CC[C@H]2[C@@H]3CCC4=Cc5oncc5C[C@]4(C)[C@H]3CC[C@@]21C [DANAZOL]", 236.4),
    ("CN(C)[C@@H]1C(O)=C(C(N)=O)C(=O)[C@@]2(O)C(O)=C3C(=O)c4c(O)cccc4[C@@](C)(O)[C@H]3C[C@@H]12 [TETRACYCLINE]", 188),
    ("O=C(O)Cc1ccccc1Nc1c(Cl)cccc1Cl [DICLOFENAC]", 237.4),
]

Value of measured TERMINAL_BW for the entry CC(=O)Nc1nnc(S(N)(=O)=O)s1 [ACETAZOLAMIDE] : 229

Note to self: TERMINAL_BW recorded for Cc1cccc(Nc2ccccc2C(=O)O)c1C [MEFENAMIC ACID] was 233.8

----------
Organism: Rattus norvegicus
Experiment: Open TG-GATES - Regimen: Single
Assay type: toxicity, organism-based, Sprague-Dawley
Parameters: regimen Single, gender Male, age 6 weeks
Conditions: in vivo, po, 0 mg/kg, 24 h, tissue Plasma, route gavage, dose level Control
parameter-measured: AST (IU/L)
Write the value in IU/L as a bare number.

The following compounds have reported results that may help.
# compound, parameter-measured, result-unit, reported
measured = [
    ("Clc1c(Cl)c(Cl)c(Cl)c(Cl)c1Cl", "AST", "IU/L", 70.6),
    ("C#C[C@]1(O)CC[C@H]2[C@@H]3CCC4=Cc5oncc5C[C@]4(C)[C@H]3CC[C@@]21C", "AST", "IU/L", 74.8),
]

Shifting focus to the compound that follows.
# AST (compound: CC(CN1c2ccccc2Sc2ccccc21)N(C)C (stereo not drawn) ) is 73.2

----------
Organism: Rattus norvegicus
Test: Open TG-GATES - Regimen: Single
Format: toxicity, organism-based, Sprague-Dawley
Design: regimen Single, gender Male, age 6 weeks
Conditions: in vivo, po, 0 mg/kg, 24 h, tissue Plasma, route gavage, dose level Control
CRE under 0.4 mg/dL gets label 1, anything at or over 0.4 mg/dL gets label 0.

# molecule, class-name
data = [
    ("C1CCC(C(CC2CCCCN2)C2CCCCC2)CC1 (stereo unspecified)", "label 1"),
]

### Prompt Answer whether the molecule CC(=O)Nc1nnc(S(N)(=O)=O)s1 [ACETAZOLAMIDE] has CRE strictly less than 0.4 mg/dL
### Response label 1

### Prompt Does this molecule meet the criterion CRE < 0.4 mg/dL? `CCOC(=O)[C@H](CCc1ccccc1)N[C@@H](C)C(=O)N1CCC[C@H]1C(=O)O`
### Response label 0

### Prompt Lab note: CRE threshold 0.4 mg/dL. Does this molecule come in strictly under it? `CN(C)[C@@H]1C(O)=C(C(N)=O)C(=O)[C@@]2(O)C(O)=C3C(=O)c4c(O)cccc4[C@@](C)(O)[C@H]3C[C@@H]12`
### Response label 0

### Prompt A record lists COc1cc([C@@H]2c3cc4c(cc3[C@@H](O[C@@H]3O[C@@H]5CO[C@@H](C)O[C@H]5[C@H](O)[C@H]3O)[C@H]3COC(=O)[C@H]23)OCO4)cc(OC)c1O [ETOPOSIDE] . Is its CRE below 0.4 mg/dL?
### Response label 0

### Prompt Problem: For the molecule `C#C[C@]1(O)CC[C@H]2[C@@H]3CCC4=Cc5oncc5C[C@]4(C)[C@H]3CC[C@@]21C` , is CRE under 0.4 mg/dL?
### Response label 1

### Prompt Is CRE of CC(CN1c2ccccc2Sc2ccccc21)N(C)C (stereo unspecified) strictly below 0.4 mg/dL?
### Response label 1

### Prompt Strictly below 0.4 mg/dL in CRE? `O=[N+]([O-])c1ccc2c(c1)Cc1ccccc1-2`
### Response label 1

----------
Species: Rattus norvegicus
Assay: Open TG-GATES - Regimen: Daily Repeat
Assay type: toxicity, organism-based, Sprague-Dawley
Set-up: regimen Daily Repeat, gender Male, age 6 weeks
Settings: in vivo, po, 0 mg/kg, […], tissue Kidney, route gavage, dose level Control, time 14 day
parameter-measured: KIDNEY_L (g)
Numeric answer only, unit g assumed.

# molecule, KIDNEY_L, g
data = [
    ("Cc1cccc(Nc2ccccc2C(=O)O)c1C", 1.2),
    ("CN(C)[C@@H]1C(O)=C(C(N)=O)C(=O)[C@@]2(O)C(O)=C3C(=O)c4c(O)cccc4[C@@](C)(O)[C@H]3C[C@@H]12", 1.2),
]

For this molecule ( CC(CN1c2ccccc2Sc2ccccc21)N(C)C (centres undefined) ), measured KIDNEY_L is 1.2

The molecule `CCOC(=O)[C@H](CCc1ccccc1)N[C@@H](C)C(=O)N1CCC[C@H]1C(=O)O` showed KIDNEY_L equal to 1.3
